Hello, the source for this data is patent US20260226076A1, in case you need it.

system: PARP1 (Homo sapiens)
Sequence (P09874 whole entry): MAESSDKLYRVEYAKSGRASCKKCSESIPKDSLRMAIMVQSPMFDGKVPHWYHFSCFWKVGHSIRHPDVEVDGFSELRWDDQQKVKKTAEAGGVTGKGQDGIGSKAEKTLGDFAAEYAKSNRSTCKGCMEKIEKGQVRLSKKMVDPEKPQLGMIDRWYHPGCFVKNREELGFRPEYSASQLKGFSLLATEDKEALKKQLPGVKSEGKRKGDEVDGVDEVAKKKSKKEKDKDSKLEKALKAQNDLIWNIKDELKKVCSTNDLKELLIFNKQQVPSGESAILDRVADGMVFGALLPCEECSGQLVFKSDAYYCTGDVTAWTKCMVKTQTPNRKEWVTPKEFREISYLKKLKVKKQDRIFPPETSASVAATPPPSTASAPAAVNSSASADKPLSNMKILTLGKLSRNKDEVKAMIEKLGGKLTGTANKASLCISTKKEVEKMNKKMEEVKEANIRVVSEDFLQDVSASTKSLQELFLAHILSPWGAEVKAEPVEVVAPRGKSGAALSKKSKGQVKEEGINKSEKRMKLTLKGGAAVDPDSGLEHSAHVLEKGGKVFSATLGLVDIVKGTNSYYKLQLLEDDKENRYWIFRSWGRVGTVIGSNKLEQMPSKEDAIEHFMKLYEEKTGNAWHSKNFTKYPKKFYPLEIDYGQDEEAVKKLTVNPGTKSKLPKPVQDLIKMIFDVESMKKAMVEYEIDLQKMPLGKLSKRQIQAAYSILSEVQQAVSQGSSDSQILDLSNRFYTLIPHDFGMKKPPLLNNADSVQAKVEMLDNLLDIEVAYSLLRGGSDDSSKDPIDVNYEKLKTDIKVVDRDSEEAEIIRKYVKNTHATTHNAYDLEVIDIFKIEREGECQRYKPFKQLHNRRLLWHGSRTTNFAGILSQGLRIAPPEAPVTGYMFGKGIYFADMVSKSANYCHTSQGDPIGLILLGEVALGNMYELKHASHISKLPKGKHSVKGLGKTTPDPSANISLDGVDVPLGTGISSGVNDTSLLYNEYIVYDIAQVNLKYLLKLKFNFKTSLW
For each entry below, report its pIC50 value.
# log scale: pIC50 equals minus log10 of the concentration in mol/L

Enquiry: # return recorded pIC50 for input `CNC(=O)c1ccc(N2C[C@H]3CN(Cc4ccc5c6c(c(=O)[nH]c5c4)OCCC6)C[C@@H]3C2)c(F)n1`
Return: 8.10

Enquiry: # return recorded pIC50 for input CNC(=O)c1ccc(N2C[C@@H]3CN(Cc4cnc5c(c4)[nH]c(=O)c4cccn45)C[C@H]3C2)cn1 (racemic)
Return: 8.10

Enquiry: # return recorded pIC50 for input `CNC(=O)c1ccc(N2C[C@H]3CN(Cc4cnc5c6c(c(=O)[nH]c5c4)COC6)C[C@@H]3C2)c(F)n1`
Return: 8.11

Enquiry: # return recorded pIC50 for input `COCCNC(=O)c1ccc(N2C[C@H]3CN(Cc4cnc5c(c4)[nH]c(=O)c4cccn45)C[C@@H]3C2)cn1`
Return: 8.09

Enquiry: # return recorded pIC50 for input `O=C(N[C@H]1CCOC1)c1ccc(N2C[C@H]3CN(Cc4ccc5c6c(c(=O)[nH]c5c4)COCC6)C[C@@H]3C2)c(F)n1`
Return: 8.09
